Assay: yeast display, Sf9 membrane polyspecificity reagent, FACS + sequencing; frameworks hold sequencing errors

| ordered residues | polyreactivity (PSR sort gate) |
| --- | --- |
| QVQLVESGGGLVQAGGSLRLSLLPPDSPSTTMLWDGIDRRLGKKGSWLPVFLPSGGTTYADSVKGRFTISRDNAKNTVYLQMNSLKPEDTAVYYCAASYYRTRWSWMYYWGQGTQVTVSS | low polyreactivity |
| QVQLVDSGGGLVQEGGSLRISCAASGFTFPRNAMGWYIQAPGKERELVAAINSGGGTNYADSVKGRFTISRDNAKNTVYLQMNSLKPEDTAVYYCAKDHGSFEMDYWGLGTQVTVSS | low polyreactivity |
| QVQLVESGGGLVQAGGSLRLSCGASGRIFTRYAMGWYRQAPGKERELVAAISYGGGGTYYADSVKGRFTISRDNAKNTVYLQINSLKPEDTAVYYCATDDPLSQINEQCMDYWGQGTQVTVSS | low polyreactivity |

====

Assay: yeast display, Sf9 membrane polyspecificity reagent, FACS + sequencing; frameworks hold sequencing errors
readout label: polyreactivity (PSR sort gate)

Below: 8 sequences and their reported polyreactivity (PSR sort gate).
| ordered residues | result |
| --- | --- |
| QVQLVESGAGLVQARASHRLSCAASGSTLYAYAIGCSRQEPGKEREMVAAISGTGGSTYYADSVKGRFTISRDNAKNTVYLQMNTLKPEDTADYYCAAYYNYFGQRYYYWGQGTQVTVSS | high polyreactivity |
| QVQLVESGGGLVQAGGSLRLSCAASGSIFYYYAMGWYRPAPGKEWELVAAISSTVSTNYADSVKGRFTISRDNAKNTVYLQMNSLKPEDTAVYYCAAAQRVNHVWYDYWGQGTQVTVSS | low polyreactivity |
| QVQLEESGGGLVQAGGSLRLSCAASGFIFVRNAMGWYRQAPGKERELVAAITRSGGSTSYADSVKGRFTISRDNAKNTVYLQMNSLKPEDTAVYYCAPQYGYWGQGTQVTVSS | high polyreactivity |
| QVQLVESGGGLVQAGGSLRLSCAASGFTFGAYAMGWYRHAPGKERELVAAINRRGGSTYYADSVKGRFTISRENAKNTVYLQMKSLKPEDTAVYYCNAPFGYDYWGQGTQVTVSS | high polyreactivity |
| QVQLVESGGGLVQAGGSLRLSCAASGSIFDVNGMGWYRQAPGKERELVATISSDGSTNYADSVKGRFTISRDNAKNTVYLQMNSLKPEDTAVYYCAADRHQVSVISTEVYWGQGTQVTVSS | low polyreactivity |
| QVQLVESGGGLVQAGGSLRLSRAASGVIIYRYAMGWYRQAPGKERELVAAISRSGGSTYYADSVKGRFTISRDNAMNTVYLQMNCLKPEDTAVYYCAADRGSLAPGNDYWGQGTQVTVSS | high polyreactivity |
| QDQLVESGGGLVQAGGSLRLSCAASGSIFVENAMGWYRQAPGKEREFVAAITRSGGSTYYADSVKGRFTISRDNAKNPVYLQMNSMKPEDTAVYYCAARIWDEQPAAGYYWGQGTQVTVSS | low polyreactivity |
| QVQLEESGGGLVQEGGSLRLSCAASGSIFTQNARGWNRQAPGKERELVAAITISGGGTYYADSVKGRFTISRDNAKNTVYFQMNSQKPEDTAVYHCAAAGRARYYYRYGYWGQVTQVTVSS | low polyreactivity |

Need polyreactivity (PSR sort gate) for each of these sequences.
1. QVQLVESGGGLVQAGGSLRLSCAASGSIFAYAMGWDRQAPGKERELFAAISGGSTYYADSVKGRFTISRDNAKNTVYLQMNSLNPEDTAVYSCAADLDDERYYWGQGTQVTVSS
2. QVQLVESGGGLVQAGGSLRFSCAASGSTFYAYAMGWYRQAAGQERELVAAIDSGGSTYYADSVKGRFTISRDNAKNTLYLQKNSLNPEDTAVYYCAVRHRYTRAYWGRDYWGQGTQVTVSS
3. QVQLVESGGGLVQAGGSLRLSCAASGRTFRYYAMGWYRQAPGKERELVAGISSSGRTYYADSVKGRFTISRDNAKNTVYLQMNSLKPEDTAVYYCNAVYWPVRPVDRHDYWGQGTQVTVSS

1: low polyreactivity; 2: low polyreactivity; 3: high polyreactivity

Attribution: the nanobody polyreactivity screen of Harvey et al. (2022)
